- Method Summary: soluble on expression in E. coli; label from the status in PepcDB or PDB records
Quantity Name: soluble on expression in E. coli

Below are worked cases with known answers.
INSERT INTO results (sequence_content, result) VALUES
  ('MGSDKIHHHHHHMEKTLVIEHDGEKAVVWETPQIFSENDYDYEVLEKALENTGGPLKEWRKKKYQEYKEWGFPRWKRCNLDGMSLPELSFKRIDLDVDISLLEKLDFEGAHRKFVLLGDTFFTDFRVYGDGKHMMRFDGDGIENVLVVVEKEAEIYKLSSTDRFRNTVMRILVKKNASLKFFNLDFFGNFSFDNVFIVLEEGARLVLRDFKAFGYRKTGHILVKLNKSSKADMKSFFYQNGSGITDLLYLMRFEGEDAEGKLKGNGVVDGAGKIVFRGILDVKRGSKNIVAEETEHTLVLSPDARMDAIPSLWVDENDVTASHSASSSSLDEDELFYLMTRGVDEIESKKLIVRGVFNELLDELDESVKGEVENVVNRIV', 'not soluble'),
  ('GSGIMAASRPLSRFWEWGKNIVCVGRNYADHVREMRSAVLSEPVLFLKPSTAYAPEGSPILMPAYTRNLHHELELGVVMGKRCRAVPEAAAMDYVGGYALCLDMTARDVQDECKKKGLPWTLAKSFTASCPVSAFVPKEKIPDPHKLKLWLKVNGELRQEGETSSMIFSIPYIISYVSKIITLEEGDIILTGTPKGVGPVKENDEIEAGIHGLVSMTFKVEKPEY', 'soluble'),
  ('MENILDYNEAELKQWMDKNGEKTFRAKQFFDWIYNGTFDFKDMKNLPQSTRERLEKNFYIGMPSVVKRLNSKKGDTVKFLFRYNDGNIIECVVMKYDYGNSICISTQVGCRMGCSFCASTIGGRVRDLTSGEILAQILKAQKEIGERISNIVLMGSGEPLDNYDNVIKFIRIVNSEKGLNIGQRHITLSTCGIVPRIYDLMKENLQITLAISLHASDDETRKKIMPIANRYSISEIIDCCKKYSDFTGRRITFEYSLVKDVNDDKESAKKLGELLSGMLCHVNLIPVNTVNETSYEKPESSKIKKFCDTLLKYKIESTIRKEMGADINAACGQLRRNYIEESEGK', 'not soluble'),
  ('MSLRLKIGSPVFFKQVRPGLHGKPFTLYKFRTMTDERDSKGNLLPDEVRLTKTGRLIRKLSIDELPQLLNVLKGDLSLVGPRPLLMDYLPLYTEKQARRHEVKPGITGWAQINGRNAISWEKKFELDVWYVDNWSFFLDLKILCLTVRKVLVSEGIQQTNHVTAERFTGSGDVSSEGHHHHHH', 'not soluble');

Now, please, on to the next sequence.
QUERY: Field request: soluble on expression in E. coli | item: MERKSPSGKKFRSKPQLARYLGGSMDLSTFDFRTGKMLMSKMNKSRQRVRYDSSNQVKGKPDLNTALPVRQTASIFKQPVTKITNHPSNKVKSDPQKAVDQPRQLFWEKKLSGLNAFDIAEELVKTMDLPKGLQGVGPGCTDETLLSAIASALHTSTMPITGQLSAAVEKNPGVWLNTTQPLCKAFMVTDEDIRKQEELVQQVRKRLEEALMADMLAHVEELARDGEAPLDKACAEDDDEEDEEEEEEEPDPDPEMEHV
RESULT: soluble

###

- Method Summary: soluble on expression in E. coli; label from the status in PepcDB or PDB records
Quantity Name: soluble on expression in E. coli

Consider the reported soluble on expression in E. coli for these sequences:
INSERT INTO assay_data (sequence_content, quantity_name, result) VALUES
  ('MSLLSRSVKRELVGKSAQMEQIRSHVAQYALLNRHVVIVGESGCGRHTIAYLIHQLTTNNGHLPWVELVASAKTEWSTVEPKVQESAGGTLLIDHIELLSEEVQRNVVQSLLNQERLNRPRTRVIAVIDQPPEQLIAQNQLLPELYYLLNQGQIDVPLLRQRPDDIAALFHYFLKQSCYKLGKPMPNVEPHYLALLRAHQWPGNVRELRNVAELYAIGIVKLAGKERLYNQEEMLSPLDELVDDYEKQVIEDALFLFSGRVADAANYLQVPRKKLYLRMKKHGLEKDAFKAREGHHHHHH', 'soluble on expression in E. coli', 'not soluble'),
  ('GMNPFQNSFGGHIPQDVAGKQGENVIFIVYNLTDSPDTVDKVKDVCANFSAMIRSMRNRFPDMQFSCTMGFGADAWTRLFPDKGKPKELSTFSEIKGEKYTAVSTPGDLLFHIRAKQMGLCFEFASILDEKLKGAVVSVDETHGFRYMDGKAIIGFVDGTENPAVDENPYHFAVIGEEDADFAGGSYVFVQKYIHDMVAWNALPVEQQEKVIGRHKFNDVELSDEEKPGNAHNAVTNIGDDLKIVRANMPFANTSKGEYGTYFIGYASTFSTTRRMLENMFIGSPAGNTDRLLDFSTAITGTLFFVPSYDLLGELGE', 'soluble on expression in E. coli', 'soluble'),
  ('MSLKKTILCFGEALIDMLAQPLVKKGMPRAFLQCAGGAPANVAVAVARLGGAVQFVGMLGSDMFGDFLFDSFAEAGVVTDGIVRTSTAKTALAFVALDAHGERSFSFYRPPAADLLFRVEHFQDASFSDALIFHACSNSMTDADIAEVTFEGMRRAQAAGAIVSFDLNFRPMLWPNGENPASRLWKGLSLADVVKLSSEELDYLANTLAADANAVIQQLWQGRAQLLLVTDAAGPVHWYTRTAGGEVPTFRVQVQDSNAAGDAFVGGMLYTFAQQFDDAAALIDFCHDPESIVSTLRFAAAVGALAVTRQGAFTAMPMLSEVLSLIQEQSEGHHHHHH', 'soluble on expression in E. coli', 'soluble'),
  ('MPLALDDGDVNLSELRAFDLLGRCETGSIVNTVSLSSTGNYLAAGGFDHKVYYYDSRGTQLWNYTTGDIVYTVSISSDGSRIAAGSNDRKVYFFNREGELLWSRKTGGNINSVAVSSEGLYIATGGEDGKVYFLDKDGKLLWSFNSGDAVRSVAISRDGDYVLEHHHHHH', 'soluble on expression in E. coli', 'not soluble'),
  ('SNAEMSYELAQHGRSTLPRELAVYALEGPFFFAAAETFERVMGSIQETPQILILRLKWVPFMDITGIQTLEEMIQSFHKRGIKVLISGANSRVSQKLVKAGIVKLVGEQNVYPVFEGALSAALTEIEAQP', 'soluble on expression in E. coli', 'soluble');

We next turn to a different sequence, shown below.
QUERY: State the recorded soluble on expression in E. coli for this entry: MSILVIGANGGVGSKLVSQLNEEHVDFTAGVRKEDQVKELENKGIKATLIDVEKNSINDLKNIFTDYDKVIFSVGSGGSTGADKTIIVDLDGAVKTIKASKEAGIKHYVMVSTYDSRREAFDASGDLKPYTIAKHYADDYLRTSDLNYTIVHPGSLTDDAGTGKIEADLYFDKAGSIPREDVATVLKEVVTSDGFNNQEFQILSGNHGVKDALKNYESLEHHHHHH
RESULT: soluble
